# assay_text: soluble fraction after stress (log2 fold change); higher = more stays soluble; pooled small domains, quantitative proteomics;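 also: 20 min heating vs room temperature control held 20 min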
# run_parameters: stress: 75 degC
Label true when soluble fraction (log2) >= -0.2; otherwise false.

Reference set (5 entries):
- entry_sequence: "HMGPPAVGSKLQDARKAQQLSLDELSKRAGVSKSMLSEVERNQANPTVGVLWRLATALGISLTDLLG"
  answer_label: "false"
- entry_sequence: "HMPPPTLVESAYNHLKADIISSYLKPDEKINLKDLSQRYQVSETPIKQALNRLISEGLIISVPRKGMWVH"
  answer_label: "true"
- entry_sequence: "HMDDISLEEIKYISSKLETKVNEIEELLVRYYDGETNEAEEKELKEFFAQADVPAHLLAEKRLFMQLASQ"
  answer_label: "true"
- entry_sequence: "HMAFIEADIGKRIKSLRNKKRITLESLAAETGFTKGYLSKVETSEKAPPVSTLGSIARALGVSISTLLGE"
  answer_label: "false"
- entry_sequence: "HMGTDGLKDIVLEILKEHPNQLAELIDGKQKVLGFLVGQVMKKTNGAANPKEVNEIIQGEIKK"
  answer_label: "true"

API: above_or_equal(metric=soluble fraction (log2), cutoff=-0.2) for item HMKKERITWDERLERFAKYITENESLPYPSSKEHAWFEENKALYDAGELESVRAQSFSFLLKILRRMNLI false

API: above_or_equal(metric=soluble fraction (log2), cutoff=-0.2) for item HMFMSKTAMVAIISEADKYGLFNIPEGLSVEKTADEIFEGHIEVDFDKLKNELDFVYKNEALEKQFQEN false

====

# assay_text: soluble fraction after stress (log2 fold change); higher = more stays soluble; pooled small domains, quantitative proteomics
# run_parameters: stress: 75 degC
Label condition met when soluble fraction (log2) >= -0.003; otherwise condition not met.

- entry_sequence: "HMQRDTIAISAIPTAIKTYLSSTYPTDTLVHAFVNKDQSIVVISKNIDFYATSFSTANAFIKRIQLPA"
  answer_label: "condition not met"
- entry_sequence: "HMLESVMHSRIAEIISREGTAPAHMSMQEKIRVVHKLDADGILMMKGAVAEIADQLSVSVPTIYRYLNKPQ"
  answer_label: "condition not met"
- entry_sequence: "HMTDDPGLSRAENRELQTLLLDRGHDIGQPDGLIGAKTRAAIRAEQSRLNMPVNGRGGQKLLRALRL"
  answer_label: "condition met"
- entry_sequence: "HMLSNLYAVLGVGRRATPDEITAAFDAWNARADAGEPIDDPLWERVRYAWDVLSSPSRRDLYDSLVDDATG"
  answer_label: "condition not met"
- entry_sequence: "HMKKTTEFAVTPEFQQRLEASPELKAAFQALTPGRQRAHLLFFAAPKQAQTRQARIEKSLPQIMAGKGLN"
  answer_label: "condition not met"

API: above_or_equal(metric=soluble fraction (log2), cutoff=-0.003) for item HMNHTIEENDRVLILDPRGKKYLITVTNRVFHTNLGKLDISELIGKNYGDKIKSHMGKNFSILKPNLIDYI condition not met

API: above_or_equal(metric=soluble fraction (log2), cutoff=-0.003) for item HMASSRPLAEGDFVRLRAGGATGRIESIKGQKATVQMGGLKVHAPLRDLLPVAEPIKQVSTASNT condition met

API: above_or_equal(metric=soluble fraction (log2), cutoff=-0.003) for item HMGDLVFDFVHGVHKAAEVEKELVMQALRFTHGNVSRAARLIGMQRSSLRYRIERYRLDAFVMEVAN condition met

API: above_or_equal(metric=soluble fraction (log2), cutoff=-0.003) for item HMKNDNIHMMASKINGIALEVGVLTPGMHPKNDLSEGEVGYIVTNLKTTREAKVGDTVTLAKKPAATPLPG condition met

API: above_or_equal(metric=soluble fraction (log2), cutoff=-0.003) for item HMQQLAEQIPTDRPYISIAEAVVLFGISRDTIYRQIRKGNIPAVNLGERLTRISRIHIEAMFPKV condition not met

API: above_or_equal(metric=soluble fraction (log2), cutoff=-0.003) for item HMVTIYQRIMLVLEDKQVSVNALSKLVDMSQTTLNTQLKGERTLSANVVAKVLVAYPDVSAEWLMRGVGTM condition not met

API: above_or_equal(metric=soluble fraction (log2), cutoff=-0.003) for item HMNTEFDVPDVVGKTLDEAEFVLKGSNLKRGLIMPVDDPSKAPGTIVRQNPEAGAGNKIRVGDVVDLWVVG condition met

API: above_or_equal(metric=soluble fraction (log2), cutoff=-0.003) for item HMAAQDLIVKTDASQVEARVLEISPDAVRYKRFSNPDGPTYVLPVAEIRYIRYANGEVEYYA condition not met

====

# assay_text: soluble fraction after stress (log2 fold change); higher = more stays soluble; pooled small domains, quantitative proteomics
# run_parameters: stress: 75 degC
Assign soluble fraction (log2) to each entry below.
Answers are plain numbers.

In the examples that follow, each entry is paired with its recorded soluble fraction (log2).
- entry_sequence: "HMNERTKIPLRKIEIGQAVYVDTLEKVGTVIDIQGKQFKVDLAGLPITVAARNLFYPLPQEAKP"
  numeric_result: -0.736
- entry_sequence: "HMGITPSIEMILEYFAFKESSETEANKFFNYYSSIGWLVGGKTKMKDWKASARNWIMNQNKFQ"
  numeric_result: -4.63
- entry_sequence: "HMENITTILRSIKNEIKKNSTFVGDDFVNQARSMNQGQIKEKSIYGHGTKKEIEELRDEGVDVLNIPWIT"
  numeric_result: -0.104
- entry_sequence: "HMELKYIDYDEALVVYAKTVTASGGGLSGVKDEGGIRKVLDFVQNDLYYPTFVDKLTYLVFGL"
  numeric_result: 0.168

For every record below, what is its soluble fraction (log2)?
1. HMFGNTGETSGTGVAFTRSPVDGENKIFGEFLVNAQGEDVVAGIRTPQPISEMEQAFPEVYSKFESVAEIL
2. HMSLTEDELFHALTIYANREGINIGATELKYLLTHYARNLGKLIELINQVSQAATMQKKPITIPLIKHS
3. HMKKEDFLEILRDYLKKGFSEDEVMDILRDYEEYFVDGIIEGKSEIEIIQSLGSPKEIANELLAES

[0.0261, -0.411, -0.631]

Could you tell me which soluble fraction (log2) is on file for HMDEEQIASRRALIMRAAREIMETQGMEALSIRKIAAMIQQTPGIIYHYFSGKEELMLAVVQEGYH ? -0.00144

====

# assay_text: soluble fraction after stress (log2 fold change); higher = more stays soluble; pooled small domains, quantitative proteomics
# run_parameters: stress: 75 degC
Assign soluble fraction (log2) to each entry below.

In the examples that follow, each entry is paired with its recorded soluble fraction (log2).
- entry_sequence: "HMESYWVVLRPMAAGTQIGANDLGYRSVALGAAAKNYLAASTNPIGSITRRRLVAGELLQGSSLTDDARA"
  soluble fraction (log2): -0.653
- entry_sequence: "HMNHHEIIMKNIDTLLKEKNISISKLEKSLGISNGYISRLRNGKYNFSLDLLLKLAKKFKISIDYLLTDFD"
  soluble fraction (log2): -0.317
- entry_sequence: "HMGEKTLSEKVYDRLKELIMDGELERGTKITETSIAKMFDVSPTPVREAFRKLASDGLIEVASWKGVIVKG"
  soluble fraction (log2): -0.378
- entry_sequence: "HMEEQELQLIQFPIASGSAWAGKAVRELILPPETLLVMLIRGTETMIPKGDTMVQEGDTAVLSASAYRDD"
  soluble fraction (log2): -0.472
- entry_sequence: "HMVAGHLQEKNGQFYAVLSYKDTKGKRRTKWVPTGLMVRGNKKRAEAMLNDIRRKFVPPEQED"
  soluble fraction (log2): -0.474
- entry_sequence: "HMKQISNTDELEAMIQKIIEDNSQQVEKFRSGNEKLFGWFVGQVMKNTQGAANPKVVNEILKKSLK"
  soluble fraction (log2): 0.318
- entry_sequence: "HMKGSIFLDEATKMVDNSALKSLNTFLEEYARETNNQIFLISHQETPAEVTQIKLKKVGGETSYE"
  soluble fraction (log2): 0.154
- entry_sequence: "HMRPSGTAGILRYLSSGAIRGIGATTAQRLVSEFGEKTLDVMENEPERVAMLKGISKSKAEDFSLQLKQS"
  soluble fraction (log2): -0.0414

For every record below, what is its soluble fraction (log2)?
1. HMKPALFSADELNRLYRYGLSLTGERDRAYDLLQTALEKYLRQSQAPANAMRYVRKIMHNQFIDDYR
2. HMLRGKNALMSQLDQIQGIGPKRKRALFNHFLTLDAIKQADVETLRQAPGMNLPAAEQVYRHFHM
3. HMWMEKEELLWNDIIRGGVERGELREDTDIQEAAALFRQVFIGLAYQMSFSDGLDVGILRKRFHHIYGLLT
4. HMGIVAPGTLKHLHAVGNSYYPDWETKRHELVTAVTKGRTSSSKELYEAEANRLITRIEELLMTAAQSV
5. HMSLPNNLIEQLQDPEPKARRRAVRRLAATRDPSAIPLLRNVYLQDGDDRVRDAAEAALVQFRAMQHN
6. HMQDELSSSVIEEAVVVLLLRAANIDGKKDEQEIEAIKRLIIQQFNYDEEKADILITSASEK
7. HMQDNPELVARIEKAAARGTSSMSDWERSFMGSLLDSAKKWGRLTAKQHEVFQRIEKKTDPAHQAAVS
8. HMGQVSDETGLARVVDALLAAHPDEVAKYRAGKTSLLGWFMGQVMKETRGQANPDLARALVLERLE

1: -1.53; 2: -0.2; 3: -0.173; 4: -0.113; 5: -0.112; 6: 0.0178; 7: 0.111; 8: -0.342

Could you tell me which soluble fraction (log2) is on file for HMAPAILTVQVKPDKIREIIGPGGKMIRMIQSETNTRVEVDDSGLVKIAAVSKEEGEAALKMVSDITME ? 0.331
